Ref: ChEMBL document CHEMBL3784951

experiment: in vitro; settings: human, Caco-2
measurement.label: Papp A→B (×10⁻⁶ cm/s)
Unit ×10⁻⁶ cm/s implied. Number only.

Respond only with Papp A→B recorded for "O=C(c1nnc(-c2ccc(OC(F)F)cc2)o1)N1CCC(Oc2ccc(CN3CCCC3)cc2)CC1"
50

Output measured Papp A→B for this item: "COc1ccc(-c2nnc(C(=O)N3CC(Oc4ccc(CN5CCN(C)CC5)c(F)c4)C3)o2)cc1"
46

Identify measured Papp A→B associated with "COc1ccc(-c2nnc(C(=O)N3CC(Oc4ccc(CN5CC6(CCCO6)C5)cc4)C3)o2)cc1"
41

Item "COc1ccc(-c2nnc(C(=O)N3CC(Oc4ccc(CN5CCCOCC5)cc4)C3)o2)cc1" : provide Papp A→B
51

State its Papp A→B: "O=C(c1nnc(-c2ccc(F)cc2)o1)N1CCC(Oc2ccc(CN3CCCC3)cc2)CC1"
52

For the compound "COc1ccc(-c2nnc(C(=O)N3CC(Oc4ccc(CN(C)C)cc4)C3)o2)cc1" , give its reported Papp A→B.
67

For "COc1ccc(-c2nnc(C(=O)N3CC(Oc4ccc(CN(C)C)c(F)c4)C3)o2)cc1" , write its Papp A→B.
62

Query Papp A→B for COc1ccc(-c2nnc(C(=O)N3CC(Oc4ccc(CN5CCC(C)(O)C5)cc4)C3)o2)cc1 (stereo unspecified)
42

In one line, give reported Papp A→B of the entry "O=C(c1nnc(-c2ccccc2)o1)N1CCC(Oc2ccc(CN3CCCC3)cc2)CC1" .
55

Please give measured Papp A→B of the following entry: "O=C(c1nnc(-c2ccc(Cl)cc2)o1)N1CCC(Oc2ccc(CN3CCCC3)cc2)CC1"
43

Report measured Papp A→B; entry is "COc1ccc(-c2nnc(C(=O)N3CCC(Oc4ccc(CN5CCN(C)CC5)cc4)CC3)o2)cc1"
56
